half-life at 1 µM reference
- Method summary: In vitro plasma stability, rat plasma
- Type: in vitro ADME
- Run parameters: both sexes, SD rat plasma, 37° C., pH 7.4, read-out: T½ (converted)
Express your answer in h, writing the number without its unit.

Entry smiles: CCN(CC)CCOC(=O)c1ccc(N)cc1
Unit abbrev: h
half-life at 1 µM: 2
--
Entry smiles: COc1ccc([C@@H]2Sc3ccccc3N(CCN(C)C)C(=O)[C@@H]2OC(C)=O)cc1
Unit abbrev: h
half-life at 1 µM: 6.75

# context switch: different molecule, same half-life at 1 µM
half-life at 1 µM reported for this molecule `CN(C)CCc1c[nH]c2cccc(O)c12` : 7.54
